The measured values listed here are drawn from ChEMBL document CHEMBL1125213.

# target: Adenosine receptor A1 (Rattus norvegicus, UniProt P25099)
# Sequence (P25099 whole entry): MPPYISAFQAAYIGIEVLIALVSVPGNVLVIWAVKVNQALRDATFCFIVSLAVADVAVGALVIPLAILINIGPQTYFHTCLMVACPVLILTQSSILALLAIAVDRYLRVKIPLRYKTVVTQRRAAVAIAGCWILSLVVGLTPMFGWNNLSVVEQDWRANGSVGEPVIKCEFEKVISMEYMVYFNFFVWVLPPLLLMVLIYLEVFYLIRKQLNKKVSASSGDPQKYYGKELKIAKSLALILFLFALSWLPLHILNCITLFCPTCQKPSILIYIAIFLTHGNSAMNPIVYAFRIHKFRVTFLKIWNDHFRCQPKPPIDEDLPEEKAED
pKi: −log10 of the molar value.
Classification field: enter YES for pKi values not below 5, NO for values below it.

{"columns": ["line_notation", "class_assignment"],
 "data": [
  ["Cn1cnc2c(Nc3ccccc3)nc(Cl)nc21", "YES"],
  ["CC[C@@H](Nc1ncnc2c1ncn2-c1ccccc1)c1ccccc1", "YES"],
  ["Nc1ncnc2c1ncn2CCO", "NO"],
  ["CC[C@H](Nc1nc(Cl)nc2c1ncn2C)c1ccccc1", "YES"],
  ["CC[C@@H](Nc1ncnc2c1ncn2C)c1ccccc1.Cl", "YES"],
  ["Nc1ncnc2c1ncn2C1CCCC1", "YES"],
  ["Cn1cnc2c(N)ncnc21", "NO"]
]}
